# Tested on: PPARg DBDmut:RXRa IVT, anti-PPARg (DBD mutation: PPARg1 K132A/R137A, NR concentration 270 nM, RXRa partner concentration 90 nM)
# Test: PBM binding z-score (relative to random genomic background probes); higher = stronger binding; sequences stand for … in GC…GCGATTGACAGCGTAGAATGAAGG
Readout Kind: PBM binding z-score
API doc: respond with a numeric literal and nothing else, no unit.

ACAGACAAGTGATGAAGGTAACTCAGGCTATCAT ... 0.0249
GATACAGGGTCAGCTAGAGGCCGGAGTATGGAAA ... -0.293
TCTTGTAGATCAATAAAGGTTAAGAAAGTGCGCT ... 0.661
ACAGACAGGTGAGGAAGGTAACTCAGGCTATCAT ... 0.395

Enquiry: # lookup: PBM binding z-score of CCTATTTGGTCAGGAGGTCACACACCGGATATGA
Return: 1.63

Enquiry: Now this one: TCGAGTAGGTTACCAATGGGGCATTCATCTTTCT
Return: -0.207
